Target: T1, rat CD47 (rat, UniProt P97829 19-303)
T1 construct: whole, on cells; also called CD47 on rat red blood cells
T1 sequence (looked up): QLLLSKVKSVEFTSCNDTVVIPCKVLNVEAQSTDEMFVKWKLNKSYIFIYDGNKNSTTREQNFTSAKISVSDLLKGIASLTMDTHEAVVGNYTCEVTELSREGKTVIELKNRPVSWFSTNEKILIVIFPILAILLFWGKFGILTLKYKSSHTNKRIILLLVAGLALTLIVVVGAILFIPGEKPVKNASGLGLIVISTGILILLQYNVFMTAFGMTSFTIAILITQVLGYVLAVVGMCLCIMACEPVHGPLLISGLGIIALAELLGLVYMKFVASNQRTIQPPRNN
Test: flow cytometry on RBCs, antibody 10 ng/ml
MEASURED PROPERTY: mean fluorescence relative to chimeric antibody

| BINDER | VALUE REPORTED |
| --- | --- |
| pVxK7b-037-hum06-LC/pVxK7b-037-hum06-HC (antibody, human IgG1, V domains shown, Full-length human IgG1/kappa in CHO supernatant; Variable entries end within framework 4 (...FGQG / ...WGQG); also called Clone 6) VH: QVQLQESGPGLVKPSQTLSLTCTVSGYTFTNYYVFWVRQARGQRLEWIGDINPVNGDTNFNEKFKNRLTISKDTSKNQVVLTMTNMDPVDTATYYCARGGYTMDYWGQG VL: DIQMTQSPSSLSASVGDRVTITCRSSQSLVHSNGNTYLHWYLQKPGQSPQLLIYKVSYRFSGIPARFSGSGSGTEFTLTISSLQSEDFAVYYCSQNTHVPRTFGQG | 2.1 fold of chimera |
| pVxK7b-037-hum20-LC/pVxK7b-037-hum20-HC (antibody, human IgG1, V domains shown, Full-length human IgG1/kappa in CHO supernatant; Variable entries end within framework 4 (...FGQG / ...WGQG); also called Clone 20) VH: QITLKESGPTLVKPTQTLTLTCTFSGYTFTNYYVFWVRQAPGQGLEWMGDINPVNGDTNFNEKFKNRVTITADKSTSTAYMELSSLRSEDTAVYYCARGGYTMDYWGQG VL: DIVMTQTPLSLPVTPGEPASISCRSSQSLVHSNGNTYLHWYLQKPGQSPQLLIYKVSYRFSGVPDRFSGSGSGTDFTLKISRVEAEDVGVYYCSQNTHVPRTFGQG | 1.9 fold of chimera |
| pVxK7b-037-hum22-LC/pVxK7b-037-hum22-HC (antibody, human IgG1, V domains shown, Full-length human IgG1/kappa in CHO supernatant; Variable entries end within framework 4 (...FGQG / ...WGQG); also called Clone 22) VH: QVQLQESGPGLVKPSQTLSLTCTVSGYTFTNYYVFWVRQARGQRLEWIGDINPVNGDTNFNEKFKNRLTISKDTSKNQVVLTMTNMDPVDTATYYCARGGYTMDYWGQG VL: EIVLTQSPATLSVSPGERATLSCRSSQSLVHSNGNTYLHWYQQKPGQAPRLLIYKVSYRFSGVPSRFSGSGSGTDFTFTISSLEAEDAATYYCSQNTHVPRTFGQG | 2.8 fold of chimera |
| pVxK7b-037-hum05-LC/pVxK7b-037-hum05-HC (antibody, human IgG1, V domains shown, Full-length human IgG1/kappa in CHO supernatant; Variable entries end within framework 4 (...FGQG / ...WGQG); also called Clone 5) VH: QVQLQESGPGLVKPSQTLSLTCTVSGYTFTNYYVFWVRQAPGKGLEWVSDINPVNGDTNFNEKFKNRVTISVDTSKNQFSLKLSSVTAADTAVYYCARGGYTMDYWGQG VL: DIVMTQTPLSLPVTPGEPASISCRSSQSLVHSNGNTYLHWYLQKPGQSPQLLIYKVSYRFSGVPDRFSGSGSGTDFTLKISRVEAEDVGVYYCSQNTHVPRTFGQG | 2.2 fold of chimera |
| pVxK7b-037-hum15-LC/pVxK7b-037-hum15-HC (antibody, human IgG1, V domains shown, Full-length human IgG1/kappa in CHO supernatant; Variable entries end within framework 4 (...FGQG / ...WGQG); also called Clone 15) VH: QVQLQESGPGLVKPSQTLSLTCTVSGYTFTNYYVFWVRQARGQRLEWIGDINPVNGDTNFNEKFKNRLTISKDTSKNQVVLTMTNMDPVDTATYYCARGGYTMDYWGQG VL: AIQLTQSPSSLSASVGDRVTITCRSSQSLVHSNGNTYLHWYQQKPGQAPRLLIYKVSYRFSGVPSRFSGSGSGTEFTLTISSLQPDDFATYYCSQNTHVPRTFGQG | 2.4 fold of chimera |
